Provide the reported Emax of each item.
biological target: hDRD2 (Homo sapiens (Human), UniProt P14416); assay: cell-based; conditions: read-out: hDRD2 % Emax ± SEM
State just the number; it will be interpreted in %.

Entry C[C@@H](O)[C@@H]1NC(=O)[C@H](CCCCN)NC(=O)[C@@H](Cc2c[nH]c3ccccc23)NC(=O)[C@H](Cc2ccncc2)NC(=O)[C@H](Cc2ccccc2)NC(=O)[C@H](CCCNC(=N)N)NC(=O)[C@H](NCCSC[C@@H]2C[C@@H]3c4cccc5[nH]cc(c45)C[C@H]3N(C)C2)CCCCNC(=O)[C@H](Cc2ccc(O)cc2)NC1=O [Compound 7] : reported Emax = ? 102

Using the record for C[C@@H](O)[C@@H]1NC(=O)[C@H](CCCCN)NC(=O)[C@@H](Cc2c[nH]c3ccccc23)NC(=O)[C@H](Cc2ccccc2)NC(=O)[C@H](Cc2ccccc2)NC(=O)[C@H](CCCNC(=N)N)NC(=O)[C@H](NCCC[C@@H]2C[C@@H]3c4cccc5[nH]cc(c45)C[C@H]3N(C)C2)CCCCNC(=O)[C@H](Cc2ccc(F)cc2)NC1=O [Compound 1] , report its Emax. 102

Emax for C[C@@H](O)[C@@H]1NC(=O)[C@H](CCCCN)NC(=O)[C@@H](Cc2c[nH]c3ccccc23)NC(=O)[C@H](Cc2ccccc2)NC(=O)[C@H](Cc2ccccc2)NC(=O)[C@H](CCCNC(=N)N)NC(=O)[C@H](NCCSC[C@@H]2C[C@@H]3c4cccc5[nH]cc(c45)C[C@H]3N(C)C2)CCCCNC(=O)[C@H](Cc2ccc(F)cc2)NC1=O [Compound 6] ? 88.3
